- Tgt: HIV-1 Rev (Human immunodeficiency virus 1, UniProt P04618 P04618:1-116)
- Sequence (P04618 whole entry, one chain of several): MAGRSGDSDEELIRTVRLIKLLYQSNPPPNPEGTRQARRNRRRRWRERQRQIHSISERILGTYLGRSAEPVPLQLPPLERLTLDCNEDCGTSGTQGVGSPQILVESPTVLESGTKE
- Assay procedure: filter; 50 mM KCl, 4 C; 18% bound at 10 nM rev
- Run parameters: tags: none stated; heparin-Sepharose and Superose 6 purified; chain copies: oligomer (tetramer likely; about 4 per RBC6, 6-8 per full-length RRE at 50 mM KCl) stated; label: 32P uniform
Observable: Kd (nM)
Write the answer as a number in nM, unit excluded.

R42 (ssRNA, [none]) RNA: GGGAGACCGGAAUUCUGGGCCCAGUGUCAUUGACGCUGGGGUACAGAAUUCCGGCA | 8

Look up Kd of R52 (ssRNA, [-]) RNA: GGGAGACCGGAAUUCUGGGCGCAGUGUCAUUGACGCUGCGGCACAGAAUUCCGGCA and report it.
5
